These data points were gathered from patent US10544106B2.

The following compounds are listed with their measured inhibition at 0.1 µM values.
- tested.on: EGFR (ErbB1) L858R (Homo sapiens (Human), UniProt P00533, L858R)
- Sequence (P00533 25-1210 L858R): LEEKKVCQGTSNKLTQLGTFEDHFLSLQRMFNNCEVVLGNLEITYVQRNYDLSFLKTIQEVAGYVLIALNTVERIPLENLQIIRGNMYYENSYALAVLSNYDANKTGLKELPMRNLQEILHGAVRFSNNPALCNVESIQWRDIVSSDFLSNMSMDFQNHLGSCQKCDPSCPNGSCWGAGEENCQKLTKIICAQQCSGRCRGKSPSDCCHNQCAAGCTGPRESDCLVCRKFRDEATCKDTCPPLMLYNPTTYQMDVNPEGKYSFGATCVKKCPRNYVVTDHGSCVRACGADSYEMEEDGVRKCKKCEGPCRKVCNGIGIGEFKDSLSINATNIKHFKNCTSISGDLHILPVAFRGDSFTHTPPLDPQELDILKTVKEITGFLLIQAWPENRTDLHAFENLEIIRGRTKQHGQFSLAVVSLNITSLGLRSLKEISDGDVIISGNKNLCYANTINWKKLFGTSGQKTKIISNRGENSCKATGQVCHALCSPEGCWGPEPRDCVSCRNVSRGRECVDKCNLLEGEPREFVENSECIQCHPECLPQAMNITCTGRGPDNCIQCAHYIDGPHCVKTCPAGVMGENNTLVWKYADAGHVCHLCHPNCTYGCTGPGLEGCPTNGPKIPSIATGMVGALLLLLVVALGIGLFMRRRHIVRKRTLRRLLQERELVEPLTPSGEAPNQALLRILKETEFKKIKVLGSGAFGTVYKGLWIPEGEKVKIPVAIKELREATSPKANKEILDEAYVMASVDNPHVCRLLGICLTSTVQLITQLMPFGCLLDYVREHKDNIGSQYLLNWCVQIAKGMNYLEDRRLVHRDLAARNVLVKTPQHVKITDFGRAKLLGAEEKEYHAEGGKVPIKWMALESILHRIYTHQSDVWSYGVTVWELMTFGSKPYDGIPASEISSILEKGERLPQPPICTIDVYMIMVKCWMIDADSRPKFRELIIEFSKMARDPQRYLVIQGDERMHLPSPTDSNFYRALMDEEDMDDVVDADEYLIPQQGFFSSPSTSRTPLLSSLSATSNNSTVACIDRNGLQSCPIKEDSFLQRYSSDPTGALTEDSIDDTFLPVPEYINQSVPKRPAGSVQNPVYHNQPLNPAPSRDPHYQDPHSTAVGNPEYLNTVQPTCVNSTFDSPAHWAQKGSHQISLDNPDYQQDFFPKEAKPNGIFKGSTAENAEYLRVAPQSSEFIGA
- assay.details: Z'-LYTE kinase inhibition assay against EGFR L858R
- Format: biochemical
- recorded.conditions: compound at 100 nM; ATP concentration at Km

- compound: "C=CC(=O)Nc1cccc(-c2cc(-c3ccc(C(=O)Nc4cccc(C(F)(F)F)c4)cc3)cc3cncnc23)c1 [C051]"
  inhibition at 0.1 µM: "> 50%"
- compound: "C=CC(=O)Nc1cccc(-c2cc(-c3cccnc3)cc3cnc(Nc4ccccc4)nc23)c1 [C076]"
  inhibition at 0.1 µM: "> 50%"

Shifting focus to the compound that follows.
QUERY: Return the recorded inhibition at 0.1 µM value; entry: C=CC(=O)Nc1cccc(-c2cc(-c3ccccc3Cl)cc3cncnc23)c1 [C013]
RESULT: > 50%

====

- tested.on: BTK (Homo sapiens (Human))
- assay.details: Z'-LYTE kinase inhibition assay against BTK
- Type: biochemical
- recorded.conditions: compound at 100 nM; ATP concentration at Km
endpoint.name: inhibition at 0.1 µM

Take a look at these entries with their results.
- compound: "C=CC(=O)Nc1cccc(-c2cc(-c3ccc(Oc4cc(C#N)ccn4)cc3)cc3cncnc23)c1 [C184]"
  endpoint.name: "inhibition at 0.1 µM"
  assay.result: "> 50%"
- compound: "C=CC(=O)N1CCC(c2nc(-c3ccc(Oc4cc(C(F)(F)F)ccn4)c(F)c3)n3c(N)nccc23)C1 (centres unmarked) [C206]"
  endpoint.name: "inhibition at 0.1 µM"
  assay.result: "> 50%"
- compound: "C=CC(=O)N1CCC(c2cc(-c3ccc(C(=O)Nc4cc(C(N)=O)ccn4)cc3)cc3cncnc23)C1 (centres unmarked) [C128]"
  endpoint.name: "inhibition at 0.1 µM"
  assay.result: "< 50%"
- compound: "C=CC(=O)Nc1cccc(-c2cc(-c3ccc(C(=O)Nc4ccccn4)cc3)n3cnccc23)c1 [C044]"
  endpoint.name: "inhibition at 0.1 µM"
  assay.result: "< 50%"
- compound: "C=CC(=O)Nc1cccc(-c2cc(-c3ccc(Oc4cc(C(F)(F)F)ccn4)cc3)cc3cncnc23)c1 [C175]"
  endpoint.name: "inhibition at 0.1 µM"
  assay.result: "> 50%"

QUERY: Return the recorded inhibition at 0.1 µM value; entry: C=CC(=O)N1CCC(c2cc(-c3ccc(Oc4ccccn4)cc3OC)n3cnccc23)C1 (centres unmarked) [C169]
RESULT: < 50%

QUERY: Return the recorded inhibition at 0.1 µM value; entry: C=CC(=O)N1CCC(c2cc(-c3ccc(C(=O)Nc4cc(C#N)ccn4)cc3)cc3cncnc23)C1 (centres unmarked) [C124]
RESULT: < 50%

QUERY: Return the recorded inhibition at 0.1 µM value; entry: C=CC(=O)Nc1cccc(-c2cc(-c3ccc(Oc4cc(C5CC5)ccn4)cc3)cc3cncnc23)c1 [C183]
RESULT: > 50%

QUERY: Return the recorded inhibition at 0.1 µM value; entry: C=CC(=O)Nc1cccc(-c2cc(-c3ccc(C(=O)Nc4ccccn4)c(OC)c3)cc3cncnc23)c1 [C141]
RESULT: < 50%

QUERY: Return the recorded inhibition at 0.1 µM value; entry: C=CC(=O)Nc1cccc(-c2cc(-c3ccc(Oc4cc(C(F)(F)F)ccn4)cc3Cl)cc3cncnc23)c1 [C088]
RESULT: > 50%

QUERY: Return the recorded inhibition at 0.1 µM value; entry: C=CC(=O)Nc1cccc(-c2cc(-c3cncc(Cl)c3)cc3cnc(N)nc23)c1 [C103]
RESULT: > 50%

QUERY: Return the recorded inhibition at 0.1 µM value; entry: C=CC(=O)N1CCC(c2cc(-c3cccnc3)cc3cncnc23)C1 (centres unmarked) [C043]
RESULT: < 50%

QUERY: Return the recorded inhibition at 0.1 µM value; entry: C=CC(=O)N1CCC(c2cc(-c3ccccc3F)cc3cnc(N)nc23)C1 (centres unmarked) [C085]
RESULT: < 50%

QUERY: Return the recorded inhibition at 0.1 µM value; entry: C=CC(=O)Nc1cccc(-c2cc(-c3ccc(C(=O)Nc4ccccc4)nc3)cc3cncnc23)c1 [C050]
RESULT: > 50%

QUERY: Return the recorded inhibition at 0.1 µM value; entry: C=CC(=O)N1CCC(c2cc(-c3ccc(Oc4cc(C(F)(F)F)ccn4)cc3)n3cnccc23)C1 (centres unmarked) [C143]
RESULT: < 50%

QUERY: Return the recorded inhibition at 0.1 µM value; entry: C=CC(=O)Nc1cccc(-c2cc(-c3ccccc3)cc3c(N)ncnc23)c1 [C016]
RESULT: < 50%

QUERY: Return the recorded inhibition at 0.1 µM value; entry: C=CC(=O)N1CCC(c2cc(-c3ccc(Oc4ccccc4)cc3)cc3cncnc23)C1 (centres unmarked) [C048]
RESULT: > 50%

QUERY: Return the recorded inhibition at 0.1 µM value; entry: C=CC(=O)N1CCC(c2cc(-c3ccc(C(=O)Nc4cccnc4)cc3)cc3cncnc23)C1 (centres unmarked) [C115]
RESULT: < 50%

====

The following molecules are listed with their measured inhibition at 0.1 µM values.
- tested.on: EGFR del746_750 (Homo sapiens (Human), UniProt P00533, DEL746-750)
- Sequence (P00533 other isoform, or with tags, fused parts or gaps del E746-A750): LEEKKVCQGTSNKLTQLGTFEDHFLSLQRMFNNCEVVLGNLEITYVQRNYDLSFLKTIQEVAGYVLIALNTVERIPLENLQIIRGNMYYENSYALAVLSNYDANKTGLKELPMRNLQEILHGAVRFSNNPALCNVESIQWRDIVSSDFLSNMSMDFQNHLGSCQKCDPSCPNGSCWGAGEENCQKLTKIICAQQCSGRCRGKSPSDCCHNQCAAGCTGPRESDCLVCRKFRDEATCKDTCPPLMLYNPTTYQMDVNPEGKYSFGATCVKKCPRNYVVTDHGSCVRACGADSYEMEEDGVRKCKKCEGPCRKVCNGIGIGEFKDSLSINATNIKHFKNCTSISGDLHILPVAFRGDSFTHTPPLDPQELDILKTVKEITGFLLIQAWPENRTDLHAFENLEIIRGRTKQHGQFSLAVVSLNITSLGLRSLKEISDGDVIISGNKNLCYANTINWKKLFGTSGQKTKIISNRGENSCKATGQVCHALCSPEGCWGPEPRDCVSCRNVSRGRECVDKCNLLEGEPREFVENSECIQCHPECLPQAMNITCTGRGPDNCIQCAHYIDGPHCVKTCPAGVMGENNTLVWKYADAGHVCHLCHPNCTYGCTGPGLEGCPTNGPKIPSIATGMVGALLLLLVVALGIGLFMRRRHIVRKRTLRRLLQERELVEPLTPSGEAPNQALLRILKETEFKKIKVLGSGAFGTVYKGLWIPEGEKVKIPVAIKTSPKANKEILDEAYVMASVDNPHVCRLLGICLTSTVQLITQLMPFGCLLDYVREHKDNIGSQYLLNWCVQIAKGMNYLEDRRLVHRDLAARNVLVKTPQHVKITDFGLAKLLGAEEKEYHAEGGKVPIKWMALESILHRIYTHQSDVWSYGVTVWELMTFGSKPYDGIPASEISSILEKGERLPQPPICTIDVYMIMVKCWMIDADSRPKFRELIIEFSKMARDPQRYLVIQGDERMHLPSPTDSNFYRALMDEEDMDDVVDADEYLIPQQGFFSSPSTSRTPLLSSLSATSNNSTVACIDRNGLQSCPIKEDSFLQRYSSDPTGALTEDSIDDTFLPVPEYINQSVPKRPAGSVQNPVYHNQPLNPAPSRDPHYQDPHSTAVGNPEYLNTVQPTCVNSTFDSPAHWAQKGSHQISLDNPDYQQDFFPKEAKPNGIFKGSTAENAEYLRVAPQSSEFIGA
- assay.details: SelectScreen Lantha method (Eu-anti-GST antibody/tracer) for EGFR del746_750
- Format: binding
- recorded.conditions: compound at 100 nM; read-out: % Inhibition against EGFR del745_750

- molecule: "C=CC(=O)N1CCCC(c2cc(-c3ccc(C)nc3)cc3cnc(N)nc23)C1 (stereo not shown)"
  inhibition at 0.1 µM: "< 50%"
- molecule: "C=CC(=O)Nc1cccc(-c2cc(-c3ccc(C(=O)Nc4ccccn4)cc3Cl)cc3cncnc23)c1"
  inhibition at 0.1 µM: "< 50%"
- molecule: "C=CC(=O)Nc1cccc(-c2cc(-c3ccccc3Cl)cc3cnc(N)nc23)c1"
  inhibition at 0.1 µM: "> 50%"

QUERY: Return the recorded inhibition at 0.1 µM value; entry: C=CC(=O)Nc1cccc(-c2cc(-c3ccccc3)cc3cnc(Nc4ccccc4)nc23)c1
RESULT: > 50%

====

- tested.on: BTK (Homo sapiens (Human))
- assay.details: Z'-LYTE kinase inhibition assay against BTK
- Type: biochemical
- recorded.conditions: compound at 100 nM; ATP concentration at Km
The following molecules are listed with their measured inhibition at 0.1 µM values.

Take a look at these entries with their results.
- molecule: "C=CC(=O)Nc1cccc(-c2cc(-c3ccc(C(=O)Nc4ccccc4)cc3)cc3cncnc23)c1"
  tested.on: "BTK (Homo sapiens (Human))"
  inhibition at 0.1 µM: "> 50%"
- molecule: "C=CC(=O)Nc1cccc(-c2cc(-c3ccc(C(=O)Nc4cc(C(N)=O)ccn4)cc3)cc3cncnc23)c1"
  tested.on: "BTK (Homo sapiens (Human))"
  inhibition at 0.1 µM: "< 50%"

QUERY: Return the recorded inhibition at 0.1 µM value; entry: CC#CC(=O)N1CCC(c2nc(-c3ccc(C(=O)Nc4ccccn4)cc3)n3c(N)nccc23)C1 (centres unmarked)
RESULT: > 50%

QUERY: Return the recorded inhibition at 0.1 µM value; entry: C=CC(=O)Nc1cccc(-c2cc(-c3ccc(C(=O)Nc4ncccc4F)cc3)c(N)c3cncnc23)c1
RESULT: < 50%

====

The following compounds are listed with their measured inhibition at 0.1 µM values.
- tested.on: BTK (Homo sapiens (Human), UniProt Q06187)
- Sequence (Q06187 whole entry): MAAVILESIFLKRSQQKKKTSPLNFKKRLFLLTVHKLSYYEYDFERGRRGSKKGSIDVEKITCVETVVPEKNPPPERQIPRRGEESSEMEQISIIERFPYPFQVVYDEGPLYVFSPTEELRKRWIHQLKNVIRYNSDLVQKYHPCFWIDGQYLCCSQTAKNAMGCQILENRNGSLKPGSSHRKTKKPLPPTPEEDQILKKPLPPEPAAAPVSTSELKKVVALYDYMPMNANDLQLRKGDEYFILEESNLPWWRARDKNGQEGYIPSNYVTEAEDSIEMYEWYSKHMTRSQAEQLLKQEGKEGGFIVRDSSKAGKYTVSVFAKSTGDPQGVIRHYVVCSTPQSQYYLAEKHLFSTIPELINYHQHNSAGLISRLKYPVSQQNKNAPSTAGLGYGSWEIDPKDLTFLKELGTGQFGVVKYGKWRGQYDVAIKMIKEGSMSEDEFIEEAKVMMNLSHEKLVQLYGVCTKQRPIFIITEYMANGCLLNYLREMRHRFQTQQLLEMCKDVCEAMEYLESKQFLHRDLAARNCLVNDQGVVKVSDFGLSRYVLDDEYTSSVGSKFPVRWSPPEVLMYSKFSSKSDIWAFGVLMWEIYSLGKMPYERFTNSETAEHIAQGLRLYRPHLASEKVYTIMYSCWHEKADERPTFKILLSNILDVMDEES
- assay.details: Z'-LYTE kinase inhibition assay against BTK
- Assay type: biochemical
- recorded.conditions: compound at 100 nM; ATP concentration at Km

- compound: "C=CC(=O)Nc1cccc(-c2cc(-c3ccnc(C(F)(F)F)c3)cc3cncnc23)c1"
  tested.on: "BTK (Homo sapiens (Human), UniProt Q06187)"
  endpoint.name: "inhibition at 0.1 µM"
  assay.result: "< 50%"
- compound: "C=CC(=O)Nc1cccc(-c2cc(-c3ccc(C(=O)Nc4cc(C#N)ccn4)cc3)c(N)c3cncnc23)c1"
  tested.on: "BTK (Homo sapiens (Human), UniProt Q06187)"
  endpoint.name: "inhibition at 0.1 µM"
  assay.result: "< 50%"
- compound: "C=CC(=O)N1CCC(c2cc(-c3ccc(C(=O)Nc4cc(OC)ccn4)cc3F)n3cnccc23)C1 (centres unmarked)"
  tested.on: "BTK (Homo sapiens (Human), UniProt Q06187)"
  endpoint.name: "inhibition at 0.1 µM"
  assay.result: "< 50%"
- compound: "C=CC(=O)N1CCC(c2cc(-c3ccc(C(=O)Nc4cccc(F)c4)nc3)cc3cncnc23)C1 (centres unmarked)"
  tested.on: "BTK (Homo sapiens (Human), UniProt Q06187)"
  endpoint.name: "inhibition at 0.1 µM"
  assay.result: "< 50%"
- compound: "C=CC(=O)Nc1cccc(-c2cc(-c3ccccn3)cc3cncnc23)c1"
  tested.on: "BTK (Homo sapiens (Human), UniProt Q06187)"
  endpoint.name: "inhibition at 0.1 µM"
  assay.result: "> 50%"

QUERY: Would you please give the reported inhibition at 0.1 µM of C=CC(=O)Nc1cccc(-c2cc(-c3ccc(C(=O)Nc4ccccn4)cc3F)c(N)c3cncnc23)c1 with BTK (Homo sapiens (Human), UniProt Q06187)?
RESULT: < 50%

QUERY: Would you please give the reported inhibition at 0.1 µM of C=CC(=O)Nc1cccc(-c2cc(-c3ccc(C(=O)Nc4ccccn4)nc3)cc3cncnc23)c1 with BTK (Homo sapiens (Human), UniProt Q06187)?
RESULT: > 50%
